- System: NCI-H23 lung
- assay-remarks: NCI tumour cell line growth inhibition, 48 h; in the data active = GI50 below about 0.43 µM; inactive = the rest
Just give me one of these, please: active, inactive

Use these answered entries as a reference point.
[
  {
    "molecule": "COc1ccc(C(=O)Nc2ncc(Cc3ccc(F)cc3)s2)cc1",
    "group": "active"
  },
  {
    "molecule": "COC(=O)c1[nH]nc(-c2ccccc2)c1N1CCCCC1",
    "group": "inactive"
  },
  {
    "molecule": "c1ccc(-c2n(Cc3ccc4ccccc4n3)c3ccccc3[n+]2Cc2ccc3ccccc3n2)cc1",
    "group": "active"
  },
  {
    "molecule": "COC(=O)Nc1nc2c(OC)c(OC)c(OC)cc2[nH]1",
    "group": "inactive"
  },
  {
    "molecule": "Cc1ccc(C(=O)Nc2ccc(CN3CCN(C)CC3)c(C(F)(F)F)c2)cc1C#Cc1cncc2ncccc12",
    "group": "inactive"
  },
  {
    "molecule": "O=C1CC(c2ccccc2)Cc2nc3ccc(Cl)cc3cc21 (centres undefined)",
    "group": "inactive"
  },
  {
    "molecule": "c1ccc(Cn2cc3c(c2)-c2oncc2CC3)cc1",
    "group": "inactive"
  },
  {
    "molecule": "C[C@@H]1CN(Cc2ccc(/C=C/c3n[nH]c4ccc5nc(-c6cn[nH]c6C(F)(F)F)c6c(c5c34)CCCC6)cc2)C[C@H](C)O1",
    "group": "inactive"
  }
]

Give the logged outcome of this assay for the following molecule: CC12C=CC(C)(O1)C1C2c2ccccc2S1(=O)=O (centres undefined)
inactive

---

Kindly supply the reported TGI values for the records listed here.
- System: KM12 colon
- assay-remarks: NCI tumour cell line growth inhibition, 48 h

Solved cases (8 shown):
[
  {
    "compound": "C(=C1\\CCC/C(=C/c2ccccc2)C1=NNc1ccccc1)/c1ccccc1",
    "TGI": "> 100 µM"
  },
  {
    "compound": "Cc1ccc(S(=O)(=Nc2ccccc2)C(C(C)C)C(C)(C)Cl)cc1 (configuration not stated)",
    "TGI": "> 50 µM"
  },
  {
    "compound": "Clc1ccc(OCC2NC3C=CC32)cn1 (configuration not stated)",
    "TGI": "> 100 µM"
  },
  {
    "compound": "COc1cc(C2c3cc4c(cc3C3OC(=O)C2C3CO)OCO4)cc(OC)c1OC (configuration not stated)",
    "TGI": "> 100 µM"
  },
  {
    "compound": "Cc1ccnc(NC(=S)Nc2ccccc2Cl)c1",
    "TGI": "> 100 µM"
  },
  {
    "compound": "COc1cc2c3c(cc(Cl)nc3c1OC)C(O)(CC(C)=O)C(=O)N2 (configuration not stated)",
    "TGI": "> 61.6 µM"
  },
  {
    "compound": "c1ccc([C@H]2CN3CCSC3=N2)cc1",
    "TGI": "> 100 µM"
  },
  {
    "compound": "C[C@H](CC[C@@H](O)C(C)(C)O)[C@H]1CC[C@@]2(C)[C@@H]3CC=C4[C@@H](CC[C@H](OC5OC(CO)C(O)C(O)C5O)C4(C)C)[C@]3(C)C(=O)C[C@]12C (some centres not stated)",
    "TGI": "> 100 µM"
  }
]

Go through the list and state TGI for each entry.
1. CN(C)c1nc(N(C)C)nc(N(C)CN(C)c2nc(N(C)C)nc(N(C)C)n2)n1
2. CC(C)[C@@H](C(=O)O[C@@H]1/C=C/C(=O)O[C@@H](C)CCC/C=C/[C@@H]2C[C@H](O)C[C@H]21)[N+](C)(C)C
3. O=C(Cc1ccc(/C=C/C(=O)c2ncc[nH]2)cc1)Nc1ccc(Br)cc1
4. Cc1nnc(N)nc1/C=C\c1cccs1
5. NC1=CC(=O)C(=O)c2cccnc21
6. CSc1nc(Cl)c(Br)c(Nc2c[nH]c(=O)[nH]c2=O)n1
7. CC(/C=N/NC1=NCCCCN1)=N\NC1=NCCCCN1
8. O=C1C2C(C(=O)[N]1[Hg][c]1ccccc1)C1(Cl)C(Cl)=C(Cl)C2(Cl)C1(Cl)Cl (configuration not stated)

> 100 µM
> 100 µM
3.13 µM
31.5 µM
25.8 µM
67.8 µM
> 100 µM
21.5 µM

Go through the list and state TGI for each entry.
1. CC(C)(C)OC(=O)NC(CCCCNC(=O)OCc1ccccc1)C(=O)NC(CCCCNC(=O)OCc1ccccc1)C(=O)ON1C(=O)CCC1=O (configuration not stated)
2. C=C(C)CC1=C(C(=S)NCCO[Si](C)(C)C(C)(C)C)C(OCC)(OCC)C1=O
3. CC(=O)OC1CCC2(C)C(CCC3C2CCC2(C)C(C4=CC(=O)OC4)CCC32)C1 (configuration not stated)
4. COc1cc(N(C)C)ccc1/C=c1/c2ccccc2n2c1cc(-c1ccccc1)[n+]2C

1. > 100 µM
2. 45.9 µM
3. > 100 µM
4. 0.418 µM

Go through the list and state TGI for each entry.
1. COc1ccc(/C=C/c2nc(N3CCOCC3)c3cc(F)c(F)cc3n2)cc1OC
2. CC(NC(=O)C(C)C(=O)NCc1ccc(C(F)(F)F)cc1)C(N)=O (configuration not stated)
3. COc1cc2ccc(CC#N)cc2cc1OC
4. Cc1cc2nc3ccc(N=Nc4ccc(N(C)C)cc4)cc3n(-c3ccccc3)c-2cc1=N
5. COC(=O)C[C@H](COCc1ccccc1)NC(=O)C[C@H](COCc1ccccc1)NC(=O)C[C@H](COCc1ccccc1)NC(=O)OC(C)(C)C
6. Cc1cc(NC2=NCCO2)c2c(c1C)CCCC2
7. Cc1nc2ccccc2c(=O)n1NC(=O)Cc1ccccc1

["> 100 µM", "> 100 µM", "> 100 µM", "0.116 µM", "> 100 µM", "33.5 µM", "> 100 µM"]

---

Kindly supply the reported TGI values for the records listed here.
- Tested on: RXF 393 renal
- assay-remarks: NCI tumour cell line growth inhibition, 48 h
One number for each entry, in µM.

[
  {
    "molecule": "CC12C=CC(C)(O1)C1C2c2ccccc2S1(=O)=O (centres undefined)",
    "system-tested": "RXF 393 renal",
    "value-units": "µM",
    "numeric-readout": 36.9
  }
]

Consider the additional molecule presented here.
API: value(readout= TGI, system= RXF 393 renal, query= CCOC(=O)c1c(-c2[nH]c(C(=O)OCc3ccccc3)c(C)c2C(=O)OCC)[nH]c(C(=O)OCc2ccccc2)c1C )
86.2

---

- System: OVCAR-8 ovarian
- assay-remarks: NCI tumour cell line growth inhibition, 48 h
Where a SMILES comes first, the peptide text is derived from it. [ ]: non-standard residue; d: D form. The star is where a group is joined. NMeF = CN[CH](Cc1ccccc1)C(=O)O; NMeV = CN[CH](C(=O)O)C(C)C; Boc = CC(C)(C)OC(=O)*; OBn = c1ccc(CO*)cc1
outcome-measure: TGI

Solved cases (2 shown):
[
  {
    "compound": "COc1cc(C/C=C/c2ccccc2)c(OC)cc1O",
    "system-tested": "OVCAR-8 ovarian",
    "result": "37 µM"
  },
  {
    "compound": "COc1ccc(CNc2nc3ccccc3nc2-c2cccs2)cc1OC",
    "system-tested": "OVCAR-8 ovarian",
    "result": "> 100 µM"
  }
]

Go through the list and state TGI for each entry.
1. CCOC(=O)c1c(-c2[nH]c(C(=O)OCc3ccccc3)c(C)c2C(=O)OCC)[nH]c(C(=O)OCc2ccccc2)c1C
2. Oc1c(I)cc(I)cc1CNCCCN(Cc1ccccn1)Cc1ccccn1
3. CCC[CH2][Sn]1([CH2]CCC)[O]C(=O)C[S]1
4. O=C1C=CC2(O[C@@H](Cc3ccccc3)[C@H](Cc3ccccc3)O2)C(SC(=O)c2ccccc2)C1 (some centres not stated)
5. O=C1NC(=O)c2c1c1c3ccccc3ccc1c1[nH]c3ccc(Br)cc3c21

["> 100 µM", "3.27 µM", "5.46 µM", "0.549 µM", "> 100 µM"]

Go through the list and state TGI for each entry.
1. CC(=O)NNC(=O)c1nn(-c2ccc(Cl)cc2)cc1OC(C)=O
2. OCCc1cnco1
3. COc1ccc(-c2nnc3n(C)c(=O)c4ccccc4n23)cc1O
4. C=C(C)CC1=C(C(=S)NCCO[Si](C)(C)C(C)(C)C)C(OCC)(OCC)C1=O
5. COC(=O)Nc1nc2c(OC)c(OC)c(OC)cc2[nH]1
6. Cn1cc2ccccc2c1-c1nc(F)nc(Oc2ccc3c(c2)CC[C@@H]2C3CC[C@]3(C)C(O)CCC23)n1 (some centres not stated)
7. CC12C=CC(C)(O1)C1C2c2ccccc2S1(=O)=O (configuration not stated)

["> 100 µM", "> 100 µM", "> 100 µM", "> 100 µM", "> 100 µM", "36 µM", "> 100 µM"]

Go through the list and state TGI for each entry.
1. CC(C)C(NC(=O)OC(C)(C)C)C(=O)N(C)C(Cc1ccccc1)C(=O)N(C)C(C(=O)N(C)C(C(=O)OCc1ccccc1)C(C)C)C(C)C (configuration not stated) (Boc-V[NMeF][NMeV][NMeV]-OBn; configuration not given here)
2. O=c1[nH]c(=O)n(C2CC(O)C(CO)O2)cc1NN=NCc1ccccc1 (configuration not stated)
3. COC1=NN2C(OC)(c3ccccc3)c3c(-c4ccccc4)sc(-c4ccccc4)c3C2(c2ccccc2)S1 (configuration not stated)

> 100 µM
> 100 µM
> 100 µM

These entries and their values trace back to PubChem BioAssay (NCI).
